- TEST_PROTOCOL: Stability under ethylene oxide sterilization, heating and aging with paclitaxel
- Format: physicochemical
- RUN_PARAMETERS: formulated with paclitaxel
ATTRIBUTE_MEASURED: stability under ethylene oxide sterilization, heating, and aging process

Sample O=C(O)c1ccccc1 — what was its stability under ethylene oxide sterilization, heating, and aging process?
not stable

One more molecule: O=C(O)c1cc(O)ccc1O
not stable

Query O=C1O[C@H]([C@@H](O)CO)C(O)=C1O next
not stable

Further, for OCCNCCO ?
not stable
